- STUDY_TARGET: T1, mouse tissue factor pathway inhibitor (TFPI) (mouse, UniProt O54819 29-289, limits assumed)
- T1 construct: bought; also called mTFPI; murine TFPI
- T1 sequence (looked up): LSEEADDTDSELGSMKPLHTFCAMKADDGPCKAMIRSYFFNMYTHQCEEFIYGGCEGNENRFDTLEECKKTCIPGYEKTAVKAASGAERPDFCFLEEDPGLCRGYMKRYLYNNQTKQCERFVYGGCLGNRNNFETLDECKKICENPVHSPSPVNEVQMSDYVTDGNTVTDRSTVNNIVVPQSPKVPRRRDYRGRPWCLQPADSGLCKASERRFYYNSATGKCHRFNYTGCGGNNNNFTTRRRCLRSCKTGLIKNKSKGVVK
- PROCEDURE_DETAILS: competitive ELISA
REPORTED_PROPERTY: variant/wild-type (ratio)
Express the result in ratio but write the number alone.

2A8 LC_V96M (Fab, V domains shown) VH: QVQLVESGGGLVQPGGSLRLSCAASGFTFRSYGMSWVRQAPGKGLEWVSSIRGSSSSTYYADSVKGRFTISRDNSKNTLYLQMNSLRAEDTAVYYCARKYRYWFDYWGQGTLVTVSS VL: DIELTQPPSVSVAPGQTARISCSGDNLRNYYAHWYQQKPGQAPVVVIYYDNNRPSGIPERFSGSNSGNTATLTISGTQAEDEADYYCQSWDDGVPMFGGGTKLTVLG: 1.5

We now examine a further binder.
Item 2A8 HC_S54F (Fab, V domains shown, also called 2A8-7) VH: QVQLVESGGGLVQPGGSLRLSCAASGFTFRSYGMSWVRQAPGKGLEWVSSIRGFSSSTYYADSVKGRFTISRDNSKNTLYLQMNSLRAEDTAVYYCARKYRYWFDYWGQGTLVTVSS VL: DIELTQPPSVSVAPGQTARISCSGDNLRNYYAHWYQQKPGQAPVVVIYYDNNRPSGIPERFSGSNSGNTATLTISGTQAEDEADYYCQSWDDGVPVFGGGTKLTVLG has what recorded variant/wild-type?
3.1
